Entry source: paper PMC5337940

Test: in vitro
Type: in vitro ADME
Conditions: mouse, microsomes, Average half-life
Overview of recorded half-life at 0.5 μM for various compounds
Reply numerically in min, unit not repeated.

# Molecule Smiles, Recorded Number
measured = [
    ("C[C@@H]([C@H](NC(=O)[C@H](Cc1ccc2ccccc2c1)NC(=O)N[C@@H](Cc1c[nH]c2ccccc12)C(=O)O)C(=O)NC[C@H]1C[C@@H](O)[C@H](n2ccc(=O)[nH]c2=O)O1)N(C)C(=O)CN", 166),
]

Exercise: Retrieve half-life at 0.5 μM measured for C[C@@H]([C@H](NC(=O)[C@H](CC1CCCCC1)NC(=O)N[C@@H](Cc1c[nH]c2ccccc12)C(=O)O)C(=O)NC[C@H]1C[C@@H](O)[C@H](n2ccc(=O)[nH]c2=O)O1)N(C)C(=O)[C@@H](N)Cc1cccc(O)c1 and print it.
Solution: 233

###

Assay: in vitro
Assay type: in vitro ADME
Settings: human, microsomes
Property Measured: microsomal CLint at 0.5 μM

Illustrative cases are given below, each with its answer.
# Molecule, Property Measured, Result
measured = [
    ("C[C@@H]([C@H](NC(=O)[C@H](Cc1ccc2ccccc2c1)NC(=O)N[C@@H](Cc1c[nH]c2ccccc12)C(=O)O)C(=O)NC[C@H]1C[C@@H](O)[C@H](n2ccc(=O)[nH]c2=O)O1)N(C)C(=O)CN [Compound 36]", "microsomal CLint at 0.5 μM", "< 7 µL/min/mg"),
    ("C[C@@H]([C@H](NC(=O)[C@H](CC1CCCCC1)NC(=O)N[C@@H](Cc1c[nH]c2ccccc12)C(=O)O)C(=O)NC[C@H]1C[C@@H](O)[C@H](n2ccc(=O)[nH]c2=O)O1)N(C)C(=O)CN [Compound 25]", "microsomal CLint at 0.5 μM", "< 7 µL/min/mg"),
]

From here, focus on the item given below.
Exercise: Supply microsomal CLint at 0.5 μM value. Item: C[C@@H]([C@H](NC(=O)[C@H](CC1CCCCC1)NC(=O)N[C@@H](Cc1c[nH]c2ccccc12)C(=O)O)C(=O)NC[C@H]1C[C@@H](O)[C@H](n2ccc(=O)[nH]c2=O)O1)N(C)C(=O)[C@@H](N)Cc1cccc(O)c1 [Compound 37]
Solution: 10 µL/min/mg

###

inhibition at 0.2 µM for assorted molecules
Target: Mtb MurX (Mycobacterium tuberculosis)
Sequence (P9WMW7 whole entry): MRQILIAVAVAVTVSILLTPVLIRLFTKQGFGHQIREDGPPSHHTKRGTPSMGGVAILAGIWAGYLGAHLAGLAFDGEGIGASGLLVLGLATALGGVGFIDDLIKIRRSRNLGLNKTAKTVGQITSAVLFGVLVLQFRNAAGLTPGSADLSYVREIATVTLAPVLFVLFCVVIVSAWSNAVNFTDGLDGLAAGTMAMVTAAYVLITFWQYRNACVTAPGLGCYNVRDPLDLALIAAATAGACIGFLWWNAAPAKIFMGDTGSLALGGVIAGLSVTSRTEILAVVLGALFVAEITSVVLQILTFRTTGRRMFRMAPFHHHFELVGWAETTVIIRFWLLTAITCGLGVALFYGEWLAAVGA
Assay: Radiochemical (TLC) MurX-MurG coupled inhibition assay in Mtb mc2 6230 membranes
Format: biochemical
Conditions: 200 nM inhibitor, decrease in lipid II formation
// note: answer is a bare numeric in %

# Molecule Smiles, inhibition at 0.2 µM / %
rows = [
    ("CC(C)C[C@H](NC(=O)N[C@@H](Cc1c[nH]c2ccccc12)C(=O)O)C(=O)N[C@H](C(=O)NC[C@H]1C[C@@H](O)[C@H](n2ccc(=O)[nH]c2=O)O1)[C@H](C)N(C)C(=O)[C@@H](N)C1CCCCC1", 14),
    ("C[C@@H]([C@H](NC(=O)[C@H](Cc1ccc2ccccc2c1)NC(=O)N[C@@H](Cc1c[nH]c2ccccc12)C(=O)O)C(=O)NC[C@H]1C[C@@H](O)[C@H](n2ccc(=O)[nH]c2=O)O1)N(C)C(=O)CN", 100),
    ("CC(C)[C@H](NC(=O)N[C@@H](Cc1c[nH]c2ccccc12)C(=O)O)C(=O)N[C@H](C(=O)NC[C@H]1C[C@@H](O)[C@H](n2ccc(=O)[nH]c2=O)O1)[C@H](C)N(C)C(=O)CN", 26),
]

Exercise: Report inhibition at 0.2 µM, nothing else, for this molecule: C[C@@H]([C@H](NC(=O)[C@@H](NC(=O)N[C@@H](Cc1c[nH]c2ccccc12)C(=O)O)C1CCCCC1)C(=O)NC[C@H]1C[C@@H](O)[C@H](n2ccc(=O)[nH]c2=O)O1)N(C)C(=O)CN
Solution: 41

###

A collection of compounds and their measured inhibition at 0.2 µM
Biological target: Mtb MurX (Mycobacterium tuberculosis)
Assay: Radiochemical (TLC) MurX-MurG coupled inhibition assay in Mtb mc2 6230 membranes
Assay type: biochemical
Details: 200 nM inhibitor, decrease in lipid II formation
Quick note: give the figure in %, leave out the unit.

Some entries whose results are on file:
# Compound, inhibition at 0.2 µM (%)
rows = [
    ("C[C@@H]([C@H](NC(=O)[C@H](CC(=O)O)NC(=O)N[C@@H](Cc1c[nH]c2ccccc12)C(=O)O)C(=O)NC[C@H]1C[C@@H](O)[C@H](n2ccc(=O)[nH]c2=O)O1)N(C)C(=O)CN [Compound 27]", 34),
    ("CC(C)C[C@H](NC(=O)N[C@@H](Cc1c[nH]c2ccccc12)C(=O)O)C(=O)N[C@H](C(=O)NC[C@H]1C[C@@H](O)[C@H](n2ccc(=O)[nH]c2=O)O1)[C@H](C)N(C)C(=O)[C@@H](N)CC(=O)O [Compound 14]", 8),
]

Let us move to another entry and its inhibition at 0.2 µM.
Exercise: Quote inhibition at 0.2 µM reported for CC(C)C[C@H](NC(=O)N[C@@H](Cc1c[nH]c2ccccc12)C(=O)O)C(=O)N[C@H](C(=O)NC[C@H]1C[C@@H](O)[C@H](n2ccc(=O)[nH]c2=O)O1)[C@H](C)N(C)C(=O)[C@@H](N)Cc1ccc2ccccc2c1 [Compound 9] please.
Solution: 27

###

Test system: Mtb H37Rv
Assay: Resazurin reduction microplate assay, growth inhibition of Mtb H37Rv
Format: cell-based, Mycobacterium tuberculosis
Conditions: Mycobacterium tuberculosis, H37RV, average of two independent experiments, each in triplicate; read-out: MIC50 Mtb H37Rv
Property Measured: MIC50

Exercise: Look up MIC50 of CSCC[C@H](NC(=O)N[C@@H](Cc1c[nH]c2ccccc12)C(=O)O)C(=O)N[C@H](C(=O)NC[C@H]1C[C@@H](O)[C@H](n2ccc(=O)[nH]c2=O)O1)[C@H](C)N(C)C(=O)[C@@H](N)c1cccc(O)c1 [Compound 4, Dihydrosansanmycin A] and report it.
Solution: 0.5 µM

Exercise: Name the recorded MIC50 of the item NNC(=O)c1ccncc1 [INH, isoniazid, reference compound] in your answer.
Solution: 0.025 µM

Exercise: Answer with the recorded MIC50 for the compound listed here: CC(C)C[C@H](NC(=O)N[C@@H](Cc1c[nH]c2ccccc12)C(=O)O)C(=O)N[C@H](C(=O)NC[C@H]1C[C@@H](O)[C@H](n2ccc(=O)[nH]c2=O)O1)[C@H](C)N(C)C(=O)CN
Solution: 0.63 µM

Exercise: // fetch MIC50 given entry CC(C)C[C@H](NC(=O)N[C@@H](Cc1c[nH]c2ccccc12)C(=O)O)C(=O)N[C@H](C(=O)NC[C@H]1C[C@@H](O)[C@H](n2ccc(=O)[nH]c2=O)O1)[C@H](C)N(C)C(=O)[C@@H](N)CC1CCCCC1
Solution: 1 µM

Exercise: Give the value of MIC50 reported for the following: C[C@H](O)[C@H](NC(=O)N[C@@H](Cc1c[nH]c2ccccc12)C(=O)O)C(=O)N[C@H](C(=O)NC[C@H]1C[C@@H](O)[C@H](n2ccc(=O)[nH]c2=O)O1)[C@H](C)N(C)C(=O)CN
Solution: 2.8 µM

###

Target: Mtb MurX (Mycobacterium tuberculosis)
Test: Radiochemical (TLC) MurX-MurG coupled inhibition assay in Mtb mc2 6230 membranes
Type: biochemical
Details: 200 nM inhibitor, decrease in lipid II formation
# inhibition at 0.2 µM listing for each entry below
Please respond with the number in % and leave the unit unwritten.

# Compound, inhibition at 0.2 µM [%]
rows = [
    ("CSCC[C@H](NC(=O)N[C@@H](Cc1c[nH]c2ccccc12)C(=O)O)C(=O)N[C@H](C(=O)NC[C@H]1C[C@@H](O)[C@H](n2ccc(=O)[nH]c2=O)O1)[C@H](C)N(C)C(=O)[C@@H](N)c1cccc(O)c1 [Compound 4, Dihydrosansanmycin A]", 68),
    ("C[C@@H]([C@H](NC(=O)[C@H](Cc1cccnc1)NC(=O)N[C@@H](Cc1c[nH]c2ccccc12)C(=O)O)C(=O)NC[C@H]1C[C@@H](O)[C@H](n2ccc(=O)[nH]c2=O)O1)N(C)C(=O)CN", 52),
    ("CC(C)C[C@H](NC(=O)N[C@@H](Cc1c[nH]c2ccccc12)C(=O)O)C(=O)N[C@H](C(=O)NC[C@H]1C[C@@H](O)[C@H](n2ccc(=O)[nH]c2=O)O1)[C@H](C)N(C)C(=O)[C@H](C)N", 50),
    ("C[C@@H]([C@H](NC(=O)[C@H](Cc1c[nH]c2ccccc12)NC(=O)N[C@@H](Cc1c[nH]c2ccccc12)C(=O)O)C(=O)NC[C@H]1C[C@@H](O)[C@H](n2ccc(=O)[nH]c2=O)O1)N(C)C(=O)CN", 52),
    ("CC(C)C[C@H](NC(=O)N[C@@H](Cc1c[nH]c2ccccc12)C(=O)O)C(=O)N[C@H](C(=O)NC[C@H]1C[C@@H](O)[C@H](n2ccc(=O)[nH]c2=O)O1)[C@H](C)N(C)C(=O)CN", 9),
    ("C[C@H](O)[C@H](NC(=O)N[C@@H](Cc1c[nH]c2ccccc12)C(=O)O)C(=O)N[C@H](C(=O)NC[C@H]1C[C@@H](O)[C@H](n2ccc(=O)[nH]c2=O)O1)[C@H](C)N(C)C(=O)CN", 40),
    ("C[C@@H]([C@H](NC(=O)[C@H](Cc1ccc(C(F)(F)F)cc1)NC(=O)N[C@@H](Cc1c[nH]c2ccccc12)C(=O)O)C(=O)NC[C@H]1C[C@@H](O)[C@H](n2ccc(=O)[nH]c2=O)O1)N(C)C(=O)CN", 100),
    ("CC(C)C[C@H](NC(=O)N[C@@H](Cc1c[nH]c2ccccc12)C(=O)O)C(=O)N[C@H](C(=O)NC[C@H]1C[C@@H](O)[C@H](n2ccc(=O)[nH]c2=O)O1)[C@H](C)N(C)C(=O)[C@@H](N)CC1CCCCC1", 41),
]

Okay, next one:
Exercise: Supply inhibition at 0.2 µM value. Item: C[C@@H]([C@H](NC(=O)[C@H](Cc1ccccc1)NC(=O)N[C@@H](Cc1c[nH]c2ccccc12)C(=O)O)C(=O)NC[C@H]1C[C@@H](O)[C@H](n2ccc(=O)[nH]c2=O)O1)N(C)C(=O)CN
Solution: 60
